All values here come from ChEMBL document CHEMBL3232851.

Give calcein release EC50/COX-2 IC50 ratio for every item shown.
system: COX-2; assay: Ratio of EC50 for membrane permeabilization to IC50 for human recombinant COX-2
Returns: the value as a bare number; no unit string appended.

Item: Cc1ccc(C2=C(c3ccc(S(N)(=O)=O)cc3)COC2=O)cc1 Test system: COX-2 Read-out: calcein release EC50/COX-2 IC50 ratio Value: ? 0.22

Record lookup: for COX-2, what calcein release EC50/COX-2 IC50 ratio belongs to CS(=O)(=O)c1ccc(-n2nc(C(F)(F)F)cc2-c2ccccc2)cc1 ? 0.19

Which measured calcein release EC50/COX-2 IC50 ratio belongs to Cc1ccc(C2=C(c3ccc(S(C)(=O)=O)cc3)COC2=O)cc1 , tested on COX-2? 20.8

Short answer please: calcein release EC50/COX-2 IC50 ratio, COX-2, entry Cc1ccc(-c2cc(C(F)(F)F)nn2-c2ccc(S(C)(=O)=O)cc2)cc1 11.1

====

target: Prostaglandin G/H synthase 2 (Homo sapiens, UniProt P35354); test: Inhibition of human recombinant COX-2 by enzyme immunoassay
Sequence (P35354 whole entry): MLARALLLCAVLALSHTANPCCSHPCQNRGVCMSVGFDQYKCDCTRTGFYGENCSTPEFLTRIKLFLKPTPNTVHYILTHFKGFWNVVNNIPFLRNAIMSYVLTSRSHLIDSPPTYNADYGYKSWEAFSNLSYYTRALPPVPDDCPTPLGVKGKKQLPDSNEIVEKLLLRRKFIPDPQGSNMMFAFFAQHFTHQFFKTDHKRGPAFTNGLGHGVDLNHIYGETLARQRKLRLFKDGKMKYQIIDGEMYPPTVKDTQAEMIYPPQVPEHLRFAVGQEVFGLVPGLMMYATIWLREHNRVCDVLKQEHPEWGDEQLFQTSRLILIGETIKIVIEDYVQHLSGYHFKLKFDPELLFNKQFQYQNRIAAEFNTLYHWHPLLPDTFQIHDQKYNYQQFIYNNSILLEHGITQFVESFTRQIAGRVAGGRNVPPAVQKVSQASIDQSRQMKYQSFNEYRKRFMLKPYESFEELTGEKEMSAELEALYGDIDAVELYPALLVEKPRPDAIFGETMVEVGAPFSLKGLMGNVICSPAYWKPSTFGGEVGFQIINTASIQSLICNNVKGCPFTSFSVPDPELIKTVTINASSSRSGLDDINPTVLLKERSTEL
outcome_measure: pIC50
FYI, pIC50 means -log10 of a concentration in mol per litre.

For the compound shown here, Cc1ccc(C2=C(c3ccc(S(N)(=O)=O)cc3)COC2=O)cc1 , give the reported pIC50. 6.96

Item under review: Cc1ccc(-c2cc(C(F)(F)F)nn2-c2ccc(S(C)(=O)=O)cc2)cc1 . Reported pIC50? 6.89

Look up pIC50 for this compound: CS(=O)(=O)c1ccc(-n2nc(C(F)(F)F)cc2-c2ccccc2)cc1 5.16

Please report the recorded pIC50 for Cc1ccc(C2=C(c3ccc(S(C)(=O)=O)cc3)COC2=O)cc1 . 6.52

====

Molecular target: Prostaglandin G/H synthase 1 (Ovis aries)
Sequence (P05979 whole entry): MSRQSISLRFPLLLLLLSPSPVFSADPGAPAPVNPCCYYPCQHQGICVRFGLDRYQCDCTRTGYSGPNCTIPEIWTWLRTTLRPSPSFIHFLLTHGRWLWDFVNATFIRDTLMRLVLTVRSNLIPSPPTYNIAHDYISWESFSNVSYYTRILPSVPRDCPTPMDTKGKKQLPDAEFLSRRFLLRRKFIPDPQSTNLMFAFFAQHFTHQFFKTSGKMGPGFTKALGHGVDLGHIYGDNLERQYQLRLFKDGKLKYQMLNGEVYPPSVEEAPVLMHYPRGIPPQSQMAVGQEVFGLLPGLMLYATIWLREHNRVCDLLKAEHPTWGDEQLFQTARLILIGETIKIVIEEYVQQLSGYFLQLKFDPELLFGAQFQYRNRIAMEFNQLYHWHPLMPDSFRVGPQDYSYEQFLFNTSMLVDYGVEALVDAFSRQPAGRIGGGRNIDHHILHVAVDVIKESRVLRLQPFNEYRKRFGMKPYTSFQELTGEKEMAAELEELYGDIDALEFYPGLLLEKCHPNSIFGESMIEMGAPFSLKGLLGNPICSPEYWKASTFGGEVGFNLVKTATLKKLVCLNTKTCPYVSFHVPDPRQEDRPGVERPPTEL
pIC50: −log10 of the molar value.
Assignment: determine reported pIC50 for the given compounds.

Provide the documented pIC50 with Prostaglandin G/H synthase 1 (Ovis aries) as the system for Cc1ccc(C2=C(c3ccc(S(C)(=O)=O)cc3)COC2=O)cc1 < 3.30

Query the reported pIC50 for Prostaglandin G/H synthase 1 (Ovis aries); item: CS(=O)(=O)c1ccc(-n2nc(C(F)(F)F)cc2-c2ccccc2)cc1 < 3.30

Provide value of pIC50 for this record tested with Prostaglandin G/H synthase 1 (Ovis aries): Cc1ccc(C2=C(c3ccc(S(N)(=O)=O)cc3)COC2=O)cc1 3.41
